Tested on: OV90
Assay: Primary qHTS to identify gynecologic anti-cancer compounds using libraries of approved drugs and bioactive compounds (AID 1345084); also: % is scaled to controls: 0 for no effect and ±100 for the full control effect; nearly all actives have a fitted effect of over 55% in size
Settings: Gynecologic cancer cell panel viability, ATPlite luminescence, 48 h; series mostly up to 57.5 µM
Inconclusive results are not listed. Activity calls are given as the source filed them. Calls follow the shape of the dose curve; as a rule, active = well fitted cell-killing curve with a large enough effect; inconclusive = small, poorly fitted or top-dose-only effect, or effect the other way; inactive = flat fitted curve, though single readings scatter.
Quantity Kind: activity change, negative = cytotoxicity

CC(C)[C@@H](C)/C=C/[C@@H](C)[C@H]1CC[C@H]2C3=CC=C4C[C@@H](O)CC[C@]4(C)[C@H]3CC[C@]12C	inactive
O=C1NC(Cc2ccc(O)cc2)C(=O)N2CCCC12 (configuration not stated)	inactive
CC(/C=C/C1(O)C(C)(C)CC(O)CC1(C)O)OC1OC(CO)C(O)C(O)C1O (configuration not stated)	inactive
NCCOCCOCCNC(=O)Cc1ccc(Nc2nc(NCc3ccc(F)cc3)nc(NCC3CCCCC3)n2)cc1	inactive
O=C1N(CC2CCCCN2)CCN1c1ccccc1 (configuration not stated)	inactive

According to the records, this compound C=C(C(=O)O)C1CCC(C)C2CCC(=O)OC2(C)C1 (configuration not stated) displays activity change, negative = cytotoxicity of inactive

Kindly note the recorded activity change, negative = cytotoxicity for CC(=O)O[C@@H]1[C@H](O[C@@H]2OC[C@](O)(CO)[C@H]2O)[C@@H](O[C@@H]2O[C@@H](C)[C@H](O)[C@@H](O)[C@H]2O)[C@H](OC(=O)[C@]23CCC(C)(C)C[C@H]2C2=CCC4[C@@]5(C)C[C@H](O)[C@H](O[C@@H]6O[C@H](C(=O)O)[C@@H](O)[C@H](O)[C@H]6O)[C@@](C)(C(=O)O)C5CC[C@@]4(C)[C@]2(C)CC3)O[C@@H]1C (some centres not stated) , which is 0.243% [at 11.6 µM] (inactive)

Lookup result for C=C1CC/C=C(/CO)C(=O)C[C@@H]2[C@@H]1CC2(C)C ; measured activity change, negative = cytotoxicity: inactive

# compound Cc1coc2c1CC1OC1(C)CCC1OC1(C)C2 (configuration not stated) ; its activity change, negative = cytotoxicity = inactive

The compound identified as CC(=O)O[C@@H]1[C@H](O[C@@H]2O[C@H](CO)[C@@H](O)[C@H](O)[C@H]2O)[C@@H](O[C@@H]2O[C@@H](C)[C@H](O)[C@@H](O[C@@H]3O[C@H](CO)[C@@H](O)[C@H](O)[C@H]3O)[C@H]2O)[C@H](OC(=O)C23CCC4(C)C(=CCC5C6(C)CC(O)C(O[C@@H]7O[C@H](C(=O)O)[C@@H](O)[C@H](O)[C@H]7O)C(C)(C(=O)O)C6CCC54C)C2CC(C)(C)CC3O)O[C@@H]1C (some centres not stated) registered its activity change, negative = cytotoxicity at 8.45% [at 6.55 µM] (inactive)

Please fill in: activity change, negative = cytotoxicity reported for COc1cccc2c1CCC[C@H]2CN(C)CCc1ccc2ccoc2c1 = inactive

So, CC(C)=CCC[C@](C)(O[C@@H]1O[C@H](CO[C@@H]2OC[C@@H](O)[C@H](O)[C@H]2O)[C@@H](O)[C@H](O)[C@H]1O)[C@H]1CC[C@]2(C)[C@@H]1[C@H](O)C[C@@H]1[C@@]3(C)CC[C@H](O[C@@H]4O[C@H](CO)[C@@H](O)[C@H](O)[C@H]4O[C@@H]4O[C@H](CO)[C@@H](O)[C@H](O)[C@H]4O)C(C)(C)[C@@H]3CC[C@]12C ? Its activity change, negative = cytotoxicity was inactive
